The values you see were collected from patent US20250011363A1.

# target_entity: acetylcholine receptor
# measurement_protocol: SPR, AchR immobilised on CM5 chip, peptide 10 uM
measurement_type: Binding affinity (RU)

Would you please look over these solved cases?
1) RKSFKR [6mer-2-628] : 30
2) KKTTNK [6mer-1-1013] : 29
3) RCNGRR [6mer-2-617] : 32
4) KFTKKK [6mer-2-696] : 20

(I) KNTERR [6mer-2-745]
(II) RHCHRR [6mer-2-785]
Task: Would you mind telling me which has the lower recorded Binding affinity (RU) between I and II ? Indicate which entry you chose by stating its label.
Output: I
